target: human collagen type I, acid soluble, extracted from placenta (Sigma C7774) (human) (UniProt P02452); assay: dried collagen assay
Sequence (P02452 162-1218 limits assumed, chain 1 of 2): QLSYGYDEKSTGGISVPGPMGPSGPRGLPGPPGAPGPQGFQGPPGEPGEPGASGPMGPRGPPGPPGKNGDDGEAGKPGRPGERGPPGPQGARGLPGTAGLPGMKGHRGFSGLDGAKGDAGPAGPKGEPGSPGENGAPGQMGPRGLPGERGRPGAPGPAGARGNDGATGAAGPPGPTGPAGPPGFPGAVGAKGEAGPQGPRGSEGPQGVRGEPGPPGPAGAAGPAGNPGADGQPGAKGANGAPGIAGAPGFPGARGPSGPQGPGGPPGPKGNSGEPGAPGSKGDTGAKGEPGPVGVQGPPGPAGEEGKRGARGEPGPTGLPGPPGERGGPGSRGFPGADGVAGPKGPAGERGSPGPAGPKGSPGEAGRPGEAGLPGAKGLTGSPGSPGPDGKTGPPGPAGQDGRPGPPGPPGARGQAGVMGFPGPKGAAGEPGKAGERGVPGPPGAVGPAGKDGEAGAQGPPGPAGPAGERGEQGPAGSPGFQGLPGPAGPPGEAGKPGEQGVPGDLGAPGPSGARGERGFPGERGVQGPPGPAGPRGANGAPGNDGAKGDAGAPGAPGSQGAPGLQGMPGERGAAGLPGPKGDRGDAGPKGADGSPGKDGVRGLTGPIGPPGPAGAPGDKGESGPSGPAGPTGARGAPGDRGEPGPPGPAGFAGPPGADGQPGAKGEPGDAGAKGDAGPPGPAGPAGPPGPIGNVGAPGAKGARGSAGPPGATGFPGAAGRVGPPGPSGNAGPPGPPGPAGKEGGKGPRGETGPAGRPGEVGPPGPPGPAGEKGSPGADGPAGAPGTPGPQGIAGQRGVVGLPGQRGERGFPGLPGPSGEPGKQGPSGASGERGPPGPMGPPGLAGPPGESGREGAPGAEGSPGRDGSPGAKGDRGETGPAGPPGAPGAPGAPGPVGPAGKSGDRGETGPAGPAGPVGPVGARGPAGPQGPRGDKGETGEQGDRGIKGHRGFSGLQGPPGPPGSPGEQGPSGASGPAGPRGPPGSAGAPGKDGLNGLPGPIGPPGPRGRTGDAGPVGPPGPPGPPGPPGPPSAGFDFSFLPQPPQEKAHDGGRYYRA
Sequence (P08123 80-1119 limits assumed, chain 2 of 2, further chain): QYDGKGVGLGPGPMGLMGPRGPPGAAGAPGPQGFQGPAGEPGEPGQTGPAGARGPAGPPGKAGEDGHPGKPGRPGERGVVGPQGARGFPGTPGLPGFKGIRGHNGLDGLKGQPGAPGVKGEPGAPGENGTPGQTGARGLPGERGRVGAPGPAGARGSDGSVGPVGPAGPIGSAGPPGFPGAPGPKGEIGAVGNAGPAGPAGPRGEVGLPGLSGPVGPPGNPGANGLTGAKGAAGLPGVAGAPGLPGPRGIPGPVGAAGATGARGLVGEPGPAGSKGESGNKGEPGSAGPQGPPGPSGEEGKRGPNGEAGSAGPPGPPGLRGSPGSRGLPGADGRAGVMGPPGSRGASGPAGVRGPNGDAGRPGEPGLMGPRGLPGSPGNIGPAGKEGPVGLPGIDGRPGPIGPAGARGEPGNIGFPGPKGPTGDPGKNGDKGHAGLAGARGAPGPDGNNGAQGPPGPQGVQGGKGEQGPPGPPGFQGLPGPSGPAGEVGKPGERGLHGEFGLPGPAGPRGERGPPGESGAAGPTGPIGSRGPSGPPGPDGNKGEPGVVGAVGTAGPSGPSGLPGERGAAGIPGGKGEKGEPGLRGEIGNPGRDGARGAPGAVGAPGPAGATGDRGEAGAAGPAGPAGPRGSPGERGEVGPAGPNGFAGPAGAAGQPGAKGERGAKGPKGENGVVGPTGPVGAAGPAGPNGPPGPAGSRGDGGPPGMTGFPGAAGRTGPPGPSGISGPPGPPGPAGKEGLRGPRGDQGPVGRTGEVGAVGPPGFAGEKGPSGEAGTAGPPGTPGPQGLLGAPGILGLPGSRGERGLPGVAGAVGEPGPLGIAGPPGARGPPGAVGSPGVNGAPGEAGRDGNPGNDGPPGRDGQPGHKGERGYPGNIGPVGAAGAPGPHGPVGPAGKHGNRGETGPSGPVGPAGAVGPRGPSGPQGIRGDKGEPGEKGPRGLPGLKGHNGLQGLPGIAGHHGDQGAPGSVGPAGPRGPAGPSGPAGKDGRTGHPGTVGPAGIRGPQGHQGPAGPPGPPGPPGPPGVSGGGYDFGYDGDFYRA
Bridge positions count the residues as written; N and C are the ends. Square brackets hold non-standard residues; d marks the D form. Primed or numbered codes have the meaning given here. Ends that are not written are not given here. Gd^T″ = GdDTPA-thiourea
measure_name: % bound (%)

Here are 2 binders together with their reported answers.
{"binder": "{Gd^T″}-GQWHCT[dS]RFPHHYCLYG (disulfide 5-14 (inferred); not fully specified (C-terminus)) [Compound ID 898]", "% bound / %": 5}
{"binder": "GWQCSGDASVWNCDWI (disulfide 4-13 (inferred)) [SEQ ID NO 39]", "% bound / %": 6}

P. YHACYQAGCYIY (disulfide 4-9 (inferred)) [SEQ ID NO 108]
Q. {Gd^T″}-GQWHCTTRFPHAYCLYG (disulfide 5-14 (inferred)) [Compound ID 878]
R. [dY][dH][dA][dC][dY][dQ][dA]G[dC][dW][dI][dW] (disulfide 4-9 (inferred); not fully specified (C-terminus)) [SEQ ID NO 163]
Req: Descending sort on % bound required. Arrange the labels as the request states and list them.
Resp: R, Q, P
(R: 37%, Q: 8%, P: 5%)
